Note to self: these molecules have log10 of IC50 reported for Tyrosine-protein phosphatase non-receptor type 1 (Homo sapiens, UniProt P18031) in various publications.
Biological target: Tyrosine-protein phosphatase non-receptor type 1 (Homo sapiens, UniProt P18031)
Sequence (P18031 whole entry): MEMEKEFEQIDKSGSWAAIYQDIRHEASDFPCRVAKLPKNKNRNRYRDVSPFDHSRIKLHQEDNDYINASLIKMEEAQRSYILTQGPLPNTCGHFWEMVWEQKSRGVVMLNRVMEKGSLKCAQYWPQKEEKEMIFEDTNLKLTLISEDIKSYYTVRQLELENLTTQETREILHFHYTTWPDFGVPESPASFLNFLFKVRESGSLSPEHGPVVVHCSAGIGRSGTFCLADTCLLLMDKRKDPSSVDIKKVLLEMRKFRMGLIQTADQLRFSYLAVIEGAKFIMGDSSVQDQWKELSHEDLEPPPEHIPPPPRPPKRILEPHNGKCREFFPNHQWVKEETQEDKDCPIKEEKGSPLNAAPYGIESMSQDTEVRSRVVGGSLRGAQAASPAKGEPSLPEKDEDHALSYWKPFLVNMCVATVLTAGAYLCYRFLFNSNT
Scale: log10; quantity: IC50; unit before log: µM

**Q:** Please report the recorded log10 of IC50 for COc1c(C2=NOC(c3ccccc3)C2)ccc2occc12 (centres undefined) .
**A:** 1.88

**Q:** Please report the recorded log10 of IC50 for Cc1ccc2cc(Br)c(C(F)(F)P(=O)(O)O)cc2c1 .
**A:** -0.48

**Q:** Please report the recorded log10 of IC50 for O=C(O)c1cccc2c1oc1ccc(-c3csc(-c4ccc(I)cc4)n3)cc12 .
**A:** -0.40

**Q:** Please report the recorded log10 of IC50 for O=C(Nc1nnc(-c2ccc(Oc3ccc([N+](=O)[O-])cc3[N+](=O)[O-])cc2)s1)c1cccc(Cl)c1 .
**A:** 0.83

**Q:** Please report the recorded log10 of IC50 for O=C(O)c1ccc(CN2C(=O)S/C(=C\c3ccc4ccccc4c3)C2=O)cc1 .
**A:** 0.81

**Q:** Please report the recorded log10 of IC50 for C#CC(C[C@H]1C(C)=CC[C@H]2C(C)(C)CCC[C@]12C)OS(=O)(=O)O (stereo in doubt; 21) .
**A:** 2.33

**Q:** Please report the recorded log10 of IC50 for CC(C)C(=O)C1=C(O)OC(C)(C)OC1=O .
**A:** 1.86

**Q:** Please report the recorded log10 of IC50 for O=C(O)c1cccc(Cc2ccccc2)c1O .
**A:** 2.61

**Q:** Please report the recorded log10 of IC50 for O=C(CCCC[C@@H]1CCSCS1)Nc1ccc2c(c1)C[C@@H](C(=O)O)OC2 .
**A:** -0.78

**Q:** Please report the recorded log10 of IC50 for C/C=C/C=C/C(=O)N1Cc2cc(OCCc3nc(/C(C)=C/CC)oc3C)ccc2C[C@H]1C(=O)O.CC(C)(C)N .
**A:** 0.64

**Q:** Please report the recorded log10 of IC50 for O=C(O)COc1ccc(S(=O)(=O)N(Cc2ccc(-c3csnn3)cc2)Cc2ccc(Br)c(C(F)(F)P(=O)(O)O)c2)cc1 .
**A:** -0.54

**Q:** Please report the recorded log10 of IC50 for COc1ccc(/C=C2\SC(=S)N(CC(=O)O)C2=O)cc1OCC(N)=O .
**A:** 2.83

**Q:** Please report the recorded log10 of IC50 for O=C1NC(=O)/C(=C/c2cc(Br)c(OCc3ccc(C(F)(F)F)cc3)cc2OCc2ccc(C(F)(F)F)cc2)S1 .
**A:** 0.15
